Item-by-item account of MIC
# Test system: M. morganii IFO 3848
# experiment.summary: MIC against standard strains (Table 1), M. morganii IFO 3848
# Type: cell-based
# applied.conditions: Morganella morganii, IFO3848, Muller-Hinton agar, overnight 37° C., read-out: MIC (minimum growth inhibitory concentration)

Sample answers from the record:
>>> result("CO[C@@]1(NC(=O)CSC(F)F)C(=O)N2C(C(=O)O)=C(CSc3nnnn3CCO)CO[C@@H]21 [FMOX, flomoxef, reference compound]")
"0.39 µg/mL"
>>> result("CN(C)CCn1nnnc1SCC1=C(C(=O)O)N2C(=O)[C@@H](NC(=O)Cc3csc(N)n3)[C@H]2SC1 [CTM, cefotiam, reference compound]")
"0.2 µg/mL"
>>> result("NC(=O)c1cc[n+](C/C=C/C2=C(C(=O)[O-])N3C(=O)[C@@H](NC(=O)/C(=N\\O)c4csc(N)n4)[C@H]3SC2)cc1 [Compound 19]")
"0.05 µg/mL"

Fill in: MIC of CO/N=C(\C(=O)N[C@@H]1C(=O)N2C(C(=O)[O-])=C(/C=C/C[n+]3cccc(-c4csc(N)n4)c3)CS[C@H]12)c1csc(N)n1 [Compound 5] is ___
0.025 µg/mL

Fill in: MIC of Nc1nc(/C(=N/O)C(=O)N[C@@H]2C(=O)N3C(C(=O)[O-])=C(/C=C/C[n+]4cccc(-c5csc(N)n5)c4)CS[C@H]23)cs1 [Compound 12] is ___
0.025 µg/mL

----------
# Test system: P. mirabilis IFO 3849
# experiment.summary: MIC against standard strains (Table 1), P. mirabilis IFO 3849
# Type: cell-based
# applied.conditions: Proteus mirabilis, IFO3849, Muller-Hinton agar, overnight 37° C., read-out: MIC (minimum growth inhibitory concentration)
quantity.name: log10(MIC) (log10 of the value in µg/mL)
For clarity, the numbers are log10 values of MIC expressed in µg/mL.

Sample answers from the record:
>>> number("Nc1nc(/C(=N/O)C(=O)N[C@@H]2C(=O)N3C(C(=O)[O-])=C(/C=C/C[n+]4cccc(-c5csc(N)n5)c4)CS[C@H]23)cs1 [Compound 12]")
-1.00
>>> number("CO/N=C(\\C(=O)N[C@@H]1C(=O)N2C(C(=O)[O-])=C(/C=C/C[n+]3cccc(NC(N)=O)c3)CS[C@H]12)c1csc(N)n1 [Compound 6]")
-1.60
>>> number("CO/N=C(\\C(=O)N[C@@H]1C(=O)N2C(C(=O)[O-])=C(/C=C/C[n+]3cccc(-c4csc(N)n4)c3)CS[C@H]12)c1csc(N)n1 [Compound 5]")
-1.00
>>> number("NC(=O)c1cc[n+](C/C=C/C2=C(C(=O)[O-])N3C(=O)[C@@H](NC(=O)/C(=N\\O)c4csc(N)n4)[C@H]3SC2)cc1 [Compound 19]")
-0.70
>>> number("NC(=O)c1ccc[n+](C/C=C/C2=C(C(=O)[O-])N3C(=O)[C@@H](NC(=O)/C(=N\\O)c4csc(N)n4)[C@H]3SC2)c1 [Compound 18]")
-1.00

Fill in: log10(MIC) of CN(C)CCn1nnnc1SCC1=C(C(=O)O)N2C(=O)[C@@H](NC(=O)Cc3csc(N)n3)[C@H]2SC1 [CTM, cefotiam, reference compound] is ___
-0.41

Fill in: log10(MIC) of CO[C@@]1(NC(=O)CSC(F)F)C(=O)N2C(C(=O)O)=C(CSc3nnnn3CCO)CO[C@@H]21 [FMOX, flomoxef, reference compound] is ___
-0.70

Fill in: log10(MIC) of NC(=O)Nc1ccc[n+](C/C=C/C2=C(C(=O)[O-])N3C(=O)[C@@H](NC(=O)/C(=N\O)c4csc(N)n4)[C@H]3SC2)c1 [Compound 13] is ___
-1.30

----------
# System: clinically isolated MRSA
# experiment.summary: Antibacterial potency against clinically isolated MRSA (47 strains)
# Assay type: cell-based
# applied.conditions: Staphylococcus aureus; concentration inhibiting growth of 50% of 47 clinically isolated MRSA strains
Item-by-item account of MIC50
Dear colleague, please return just the value in µg/mL, with no unit written.

Sample answers from the record:
>>> number("CO/N=C(\\C(=O)N[C@@H]1C(=O)N2C(C(=O)[O-])=C(/C=C/C[n+]3cccc(NC(N)=O)c3)CS[C@H]12)c1csc(N)n1 [Compound 6]")
13.8
>>> number("CO[C@@]1(NC(=O)CSC(F)F)C(=O)N2C(C(=O)O)=C(CSc3nnnn3CCO)CO[C@@H]21 [FMOX, flomoxef, reference compound]")
5.13

Fill in: MIC50 of NC(=O)c1cc[n+](C/C=C/C2=C(C(=O)[O-])N3C(=O)[C@@H](NC(=O)/C(=N\O)c4csc(N)n4)[C@H]3SC2)cc1 [Compound 19] is ___
2.92

Fill in: MIC50 of NC(=O)Nc1ccc[n+](C/C=C/C2=C(C(=O)[O-])N3C(=O)[C@@H](NC(=O)/C(=N\O)c4csc(N)n4)[C@H]3SC2)c1 [Compound 13] is ___
0.83

Fill in: MIC50 of NC(=O)c1ccc[n+](C/C=C/C2=C(C(=O)[O-])N3C(=O)[C@@H](NC(=O)/C(=N\O)c4csc(N)n4)[C@H]3SC2)c1 [Compound 18] is ___
2.63

----------
# Tested on: P. aeruginosa AKR17
# experiment.summary: MIC against standard strains (Table 1), P. aeruginosa AKR17
# Assay type: cell-based
# applied.conditions: Pseudomonas aeruginosa, Muller-Hinton agar, overnight 37° C., read-out: MIC (minimum growth inhibitory concentration)
quantity.name: MIC

>>> result("NC(=O)Nc1ccc[n+](C/C=C/C2=C(C(=O)[O-])N3C(=O)[C@@H](NC(=O)/C(=N\\O)c4csc(N)n4)[C@H]3SC2)c1")
"> 100 µg/mL"
>>> result("Nc1nc(/C(=N/O)C(=O)N[C@@H]2C(=O)N3C(C(=O)[O-])=C(/C=C/C[n+]4cccc(-c5csc(N)n5)c4)CS[C@H]23)cs1")
"> 100 µg/mL"

Fill in: MIC of CO[C@@]1(NC(=O)CSC(F)F)C(=O)N2C(C(=O)O)=C(CSc3nnnn3CCO)CO[C@@H]21 [FMOX, flomoxef, reference compound] is ___
> 100 µg/mL

----------
# Test system: C. freundii ATCC 8090
# experiment.summary: MIC against standard strains (Table 1), C. freundii ATCC 8090
# Assay type: cell-based
# applied.conditions: Citrobacter freundii, ATCC8090, Muller-Hinton agar, overnight 37° C., read-out: MIC (minimum growth inhibitory concentration)
quantity.name: MIC (µg/mL)
Dear colleague, please return just the value in µg/mL, with no unit written.

>>> number("CO[C@@]1(NC(=O)CSC(F)F)C(=O)N2C(C(=O)O)=C(CSc3nnnn3CCO)CO[C@@H]21 [FMOX, flomoxef, reference compound]")
0.2
>>> number("CO/N=C(\\C(=O)N[C@@H]1C(=O)N2C(C(=O)[O-])=C(/C=C/C[n+]3cccc(-c4csc(N)n4)c3)CS[C@H]12)c1csc(N)n1 [Compound 5]")
0.025
>>> number("CO/N=C(\\C(=O)N[C@@H]1C(=O)N2C(C(=O)[O-])=C(/C=C/C[n+]3cccc(NC(N)=O)c3)CS[C@H]12)c1csc(N)n1 [Compound 6]")
0.025
>>> number("NC(=O)c1ccc[n+](C/C=C/C2=C(C(=O)[O-])N3C(=O)[C@@H](NC(=O)/C(=N\\O)c4csc(N)n4)[C@H]3SC2)c1 [Compound 18]")
0.05
>>> number("CN(C)CCn1nnnc1SCC1=C(C(=O)O)N2C(=O)[C@@H](NC(=O)Cc3csc(N)n3)[C@H]2SC1 [CTM, cefotiam, reference compound]")
0.78
>>> number("NC(=O)Nc1ccc[n+](C/C=C/C2=C(C(=O)[O-])N3C(=O)[C@@H](NC(=O)/C(=N\\O)c4csc(N)n4)[C@H]3SC2)c1 [Compound 13]")
0.025

Fill in: MIC of NC(=O)c1cc[n+](C/C=C/C2=C(C(=O)[O-])N3C(=O)[C@@H](NC(=O)/C(=N\O)c4csc(N)n4)[C@H]3SC2)cc1 [Compound 19] is ___
0.05

Fill in: MIC of Nc1nc(/C(=N/O)C(=O)N[C@@H]2C(=O)N3C(C(=O)[O-])=C(/C=C/C[n+]4cccc(-c5csc(N)n5)c4)CS[C@H]23)cs1 [Compound 12] is ___
0.05

----------
# Tested on: K. pneuminiae IFO 3317
# experiment.summary: MIC against standard strains (Table 1), K. pneuminiae IFO 3317
# Assay type: cell-based
# applied.conditions: Muller-Hinton agar, overnight 37° C., read-out: MIC (minimum growth inhibitory concentration)
quantity.name: MIC (µg/mL)
Dear colleague, please return just the value in µg/mL, with no unit written.

Sample answers from the record:
>>> number("NC(=O)c1cc[n+](C/C=C/C2=C(C(=O)[O-])N3C(=O)[C@@H](NC(=O)/C(=N\\O)c4csc(N)n4)[C@H]3SC2)cc1")
0.05
>>> number("CO/N=C(\\C(=O)N[C@@H]1C(=O)N2C(C(=O)[O-])=C(/C=C/C[n+]3cccc(-c4csc(N)n4)c3)CS[C@H]12)c1csc(N)n1")
0.025
>>> number("CO/N=C(\\C(=O)N[C@@H]1C(=O)N2C(C(=O)[O-])=C(/C=C/C[n+]3cccc(NC(N)=O)c3)CS[C@H]12)c1csc(N)n1")
0.025
>>> number("CO[C@@]1(NC(=O)CSC(F)F)C(=O)N2C(C(=O)O)=C(CSc3nnnn3CCO)CO[C@@H]21 [FMOX, flomoxef, reference compound]")
0.05
>>> number("CN(C)CCn1nnnc1SCC1=C(C(=O)O)N2C(=O)[C@@H](NC(=O)Cc3csc(N)n3)[C@H]2SC1 [CTM, cefotiam, reference compound]")
0.2
>>> number("Nc1nc(/C(=N/O)C(=O)N[C@@H]2C(=O)N3C(C(=O)[O-])=C(/C=C/C[n+]4cccc(-c5csc(N)n5)c4)CS[C@H]23)cs1")
0.05
>>> number("NC(=O)c1ccc[n+](C/C=C/C2=C(C(=O)[O-])N3C(=O)[C@@H](NC(=O)/C(=N\\O)c4csc(N)n4)[C@H]3SC2)c1")
0.05

Continue with the compound presented below.
Quick check: MIC on K. pneuminiae IFO 3317, item NC(=O)Nc1ccc[n+](C/C=C/C2=C(C(=O)[O-])N3C(=O)[C@@H](NC(=O)/C(=N\O)c4csc(N)n4)[C@H]3SC2)c1 ?
0.025
